Listing: pIC50 of selected compounds
# SYSTEM_TESTED: p38α (Homo sapiens)
# Sequence (Q16539 whole entry): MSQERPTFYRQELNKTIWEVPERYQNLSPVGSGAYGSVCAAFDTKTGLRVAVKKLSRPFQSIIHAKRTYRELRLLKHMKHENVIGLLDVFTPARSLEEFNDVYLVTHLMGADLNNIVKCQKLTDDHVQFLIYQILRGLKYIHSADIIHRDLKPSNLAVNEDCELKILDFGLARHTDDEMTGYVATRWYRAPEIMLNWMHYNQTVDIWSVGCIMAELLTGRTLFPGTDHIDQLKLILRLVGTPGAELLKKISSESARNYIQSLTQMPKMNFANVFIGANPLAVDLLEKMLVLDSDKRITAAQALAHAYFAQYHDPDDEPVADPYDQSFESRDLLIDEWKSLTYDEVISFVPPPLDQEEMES
# ASSAY_NOTES: p38α/MK2 cascade assay
# Format: biochemical
# CONDITIONS: Table 1; inhibitors preincubated with p38α for 40 minutes; phosphorylation of Hsp27 peptide by MK-2, Caliper LabChip 3000; read-out: p38a/MK2 Cascade 40 min Pre-Incuabtion (% Inhibition): IC50
# Experimental: The ability of compounds to inhibit activated p38α was determined in a p38α/MK-2 cascade assay format. The kinase activity of p38α is determined by its ability to phosphorylate/activate nonactive MK2 (54-400). Activation of MK-2 by p38α is measured by following the phosphorylation of a MK-2 specific peptide, Hsp27 peptide (FITC-KKKALSRQLSVAA). The phosphorylation of the Hsp27 peptide was quantified using the Caliper LabChip 3000. […]
// scale note: pIC50 = -log10(conc_M); give the bare number

Solved entries (count: 3):
pIC50 in this record for CCc1c(OCc2ccccc2CNC(=O)Nc2cc(C(C)(C)C)nn2-c2ccc(C)cc2)ncn(Cc2ccccc2)c1=O : 7.84

pIC50 in this record for COc1cccc(Cn2c(C)cc(OCc3ccc(F)cc3CNC(=O)Nc3cc(C(C)(C)C)nn3-c3ccc(Cl)c(O)c3)c(Cl)c2=O)c1 : 8.21

pIC50 in this record for COc1ccc(Cn2c(C)cc(OCc3ccccc3CNC(=O)Nc3cc(C(C)(C)C)nn3-c3ccc(F)cc3F)c(Br)c2=O)c(OC)c1 : 7.96

***
pIC50 in this record for COc1cccc(Cn2c(C)cc(OCc3ccc(F)cc3CNC(=O)Nc3cc(C(C)(C)C)nn3-c3cccc(OCCOC4CCCCO4)c3)cc2=O)c1 (stereo not shown) : 6.58

pIC50 in this record for COc1cccc(Cn2c(C)cc(OCc3ccccc3CNC(=O)Nc3cc(C(C)(C)C)nn3-c3ccc(Cl)c(O)c3)c(C)c2=O)c1 : 7.91

pIC50 in this record for COc1cccc(Cn2c(C)cc(OCc3ccc(F)cc3CNC(=O)Nc3cc(C(C)(C)C)nn3-c3cccc(O)c3)c(Cl)c2=O)c1 : 8.19

pIC50 in this record for COc1ccc(Cn2c(C)cc(OCc3ccccc3CNC(=O)Nc3cc(C(C)(C)C)nn3-c3cccc(OCCO)c3)c(Cl)c2=O)cc1 : 8.03

pIC50 in this record for Cc1cc(OCc2ccccc2CNC(=O)Nc2cc(C(C)(C)C)nn2-c2cccc(Cl)c2)c(Br)c(=O)n1Cc1ccccc1 : 8.43

pIC50 in this record for COc1cccc(Cn2c(C)cc(OCc3ccc(F)cc3CNC(=O)Nc3cc(C(C)(C)C)nn3-c3ccc(Cl)c(O[Si](C)(C)C(C)(C)C)c3)c(Cl)c2=O)c1 : 7.37

pIC50 in this record for CCc1c(OCc2ccccc2CNC(=O)Nc2cc(C(C)(C)C)nn2-c2ccccc2)ncn(Cc2ccccc2)c1=O : 8.00

---

# SYSTEM_TESTED: p38α (Homo sapiens)
# ASSAY_NOTES: p38α/MK2 cascade assay
# Type: biochemical
# CONDITIONS: Table 2; same p38α/MK2 cascade assay; 40 minutes preincubation; read-out: p38a/MK2 Cascade 40 min Pre-Incuabtion (% Inhibition): IC50
PROPERTY_LABEL: IC50 (nM)
State the answer as a number, implicitly in nM.

IC50 in this record for COc1cc(Cn2c(C)cc(OCc3ccccc3CNC(=O)Nc3cc(C(C)(C)C)nn3-c3ccc(O)cc3)c(Cl)c2=O)ccc1Cl : 10.1

IC50 in this record for COc1ccccc1Cn1c(C)cc(OCc2ccccc2CNC(=O)Nc2cc(C(C)(C)SC)nn2-c2cccc(O)c2)c(Cl)c1=O : 20.5

IC50 in this record for Cc1ccc(C(=O)NCCO)cc1-n1c(C)cc(OCc2ccccc2CNC(=O)Nc2cc(C(C)(C)C)nn2-c2ccc(O)c(Cl)c2)c(Cl)c1=O : 3.2

IC50 in this record for CSc1ccccc1Cn1c(C)cc(OCc2ccccc2CNC(=O)Nc2cc(C(C)(C)C)nn2-c2cccc(O)c2)c(Cl)c1=O : 14.1

***
IC50 in this record for COc1ccccc1Cn1c(C)cc(OCc2ccccc2CNC(=O)Nc2cc(C(C)(C)C)nn2-c2ccc(O)cc2)c(Cl)c1=O : 10

IC50 in this record for CSc1ccccc1Cn1c(C)cc(OCc2ccccc2CNC(=O)Nc2cc(C(C)(C)C)nn2-c2cccc(OCCO)c2)c(Cl)c1=O : 20.4

IC50 in this record for Cc1ccc(C(=O)NCC(N)=O)cc1-n1c(C)cc(OCc2ccccc2CNC(=O)Nc2cc(C(C)(C)C)nn2-c2ccc(O)cc2)c(Cl)c1=O : 0.9

IC50 in this record for Cc1cc(OCc2ccccc2CNC(=O)Nc2cc(C(C)(C)C)nn2-c2ccc(Cl)c(O)c2)c(Cl)c(=O)n1Cc1ccc(CNC(=O)CN)cc1 : 2.4

IC50 in this record for COc1ccccc1Cn1c(C)cc(OCc2ccccc2CNC(=O)Nc2cc(C(C)(C)C)nn2-c2ccc(Cl)c(O)c2)c(C)c1=O : 53.7
